B1: HDV Ribozyme (parent)
chain: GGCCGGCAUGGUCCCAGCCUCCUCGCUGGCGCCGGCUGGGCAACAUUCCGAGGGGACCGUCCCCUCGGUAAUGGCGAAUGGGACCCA

Variants of: B1
protocolSummary: self-cleavage, relative activity (ratio to wild type); higher = more cleavage; co-transcriptional
measurementKind: self-cleavage
# print the numeric value only

GET /values?readout=self-cleavage&item= GGCCGGCAUGGUCCCAGCCUCCUCGCUGGCACCGGCUGGGCAACAUUCCGAGGGUACCGUCCCCUCGGUAAUGGCGAAUGGGACCCA [G31A G55U]
0.347

What value of measured self-cleavage is listed for GGCCGGCAUGGUCCCAGCCUCCUCGCUACCGCCGGCUGGGCAACAUUCCGAGGGGACCGUCCCCUCGGUAAUGGCGAAUGGGACCCA [G28A G29C] ?
0.0519

What value of measured self-cleavage is listed for AGCCGGCAUGGUCCGAGCCUCCUCGCUGGCGCCGGCUGGGCAACAUUCCGAGGGGACCGUCCCCUCGGUAAUGGCGAAUGGGACCCA [G1A C15G] ?
0

Recorded self-cleavage for GGCCGGCAUGGUCCCAGCCUCCUCGCUGGCGCCUGCUGGGCAACAUUCCGAGGGGACCGUCCCCUCGGUAAUGGCGAAAGGGACCCA [G34U U79A] , please?
0.138

Name the reported self-cleavage value associated with the variant GGCCGGCAUGGUCCCAGCCUCCUCGCUGGCGCCGGCUGGGCAGCAAUCCGAGGGGACCGUCCCCUCGGUAAUGGCGAAUGGGACCCA [A43G U46A]
0.782

I am curious: what self-cleavage value has been reported for GGCCGGCAUGGUCCAAGCCUCCUCGCUGGCGCCGGCUGGGCAACAUUCCGAGGGGACCGUCCCCUCGGUAAUGGCGAAUGCGACCCA [C15A G81C] ?
0.208

Item under review: GGCCGGCAUGGUCCCAGCCUACUCGCUGGCGCCGGCUGGGCAACAUUCCGAGGGAACCGUCCCCUCGGUAAUGGCGAAUGGGACCCA [C21A G55A] . Reported self-cleavage?
0.129

Given the variant GGCCGGCAUGGUCCCAGCCUCCCCGCUGGCGCCGGCUGGGCAACAUUCCGAGGGGACCUUCCCCUCGGUAAUGGCGAAUGGGACCCA [U23C G59U] , what is its reported self-cleavage?
0.975

I have this variant here, GGCCGGCAUGGUCCCAGCCUCCUCGCUGGCGCCUGCUGGGCAACAUUCCGAGGGGACCGUCCCCUCGGUAAUGGCGCAUGGGACCCA [G34U A77C] , and I need its recorded self-cleavage.
0.0678

Given the entry GGCCGGCAUUGUCCCAGCCUCCUCGCUGGCGCCGGCUGGGCAACAUUCCGAGGGGACCGUCCCCUCGGUAAUGGCGAAUGGGAUCCA [G10U C84U] , report its measured self-cleavage.
0.409

// query self-cleavage value for entry GGCCGGCAUGGUCCCAGCCUCCUCGCUGGCGCCGGCUGGGCAACAUUCCGACGGGACCGUCGCCUCGGUAAUGGCGAAUGGGACCCA [G52C C62G]
0.383
